Values were extracted from the Immune Epitope Database (IEDB).

target_or_system: HLA-C*15:02
protocol_summary: IEDB peptide-MHC binding, purified MHC/direct/fluorescence; filed as Kd, often an IC50 or EC50 that approximates it; bounds were set here for any values at or beyond the usual limits of such assays
settings: source organism: Salmonella enterica subsp. enterica serovar Typhi str. CT18
measure_name: Kd (µM)
Give bare numbers, in µM.

Which value of Kd has been reported for `YLRNAGAAM` in the records?
3.59

###

target_or_system: HLA-A*02:01
protocol_summary: IEDB peptide-MHC binding, purified MHC/direct/fluorescence; filed as Kd, often an IC50 or EC50 that approximates it; bounds were set here for any values at or beyond the usual limits of such assays
settings: source organism: Haemophilus influenzae
measure_name: pKd
One number for each entry, as −log10 of the molar value.

API: value(readout= pKd, system= HLA-A*02:01, query= `KTQEPPQVA` )
5.15
